Test system: SK-OV-3 ovarian
PROTOCOL SUMMARY: NCI tumour cell line growth inhibition, 48 h
Listed here are molecules together with their documented TGI.

Here's what some known entries look like.
INSERT INTO assay_data (molecule, result) VALUES
  ('O=S(O)CCCCSSCC(O)C(O)CSSCCCCS(=O)O (stereo unspecified)', '> 100 µM'),
  ('CNc1ccc(OC)cc1S(=O)(=O)c1ccccc1[N+](=O)[O-]', '> 100 µM'),
  ('CC[N+](CC)(CCNCC(N)=O)CC(N)=O', '> 10 µM'),
  ('CCN(CC)CCOc1ccc(/C=C(\C#N)c2ccc(OCCN(CC)CC)cc2)cc1', '> 64.2 µM'),
  ('O=C(OC(=O)n1ccc2ccccc21)n1ccc2ccccc21', '> 100 µM'),
  ('O=[N+]([O-])c1ccccc1S(=O)(=O)c1cc(Cl)cc2c1NCCC2', '> 100 µM'),
  ('Clc1c(Cl)c(Cl)c2nn(C3CCCO3)nc2c1Cl (stereo unspecified)', '> 100 µM'),
  ('Oc1ccc(Cl)cc1Cc1cc(Cl)cc(Cl)c1O', '13.1 µM');

Would you mind telling me what TGI value was observed for CCc1nc(N)nc(N)c1-c1ccc2nn(-c3ccccc3)[n+]([O-])c2c1 ?
> 69.3 µM

Would you mind telling me what TGI value was observed for CC(C)C1OC23CCCCC2C(C#N)(C#N)C1(C#N)C(=N)O3 (stereo unspecified) ?
> 100 µM

Would you mind telling me what TGI value was observed for Cc1cc2nc3c(C#N)c(-c4ccccc4)cc(Nc4ccc(Cl)cc4)n3c2cc1C ?
> 100 µM
